Target: human PAR-1 (Homo sapiens)
Construct: expressed in transfected cells; host or cells: CHO-K1 (transformant flag/trn/CHO-K1)
Sequence (P25116 22-425): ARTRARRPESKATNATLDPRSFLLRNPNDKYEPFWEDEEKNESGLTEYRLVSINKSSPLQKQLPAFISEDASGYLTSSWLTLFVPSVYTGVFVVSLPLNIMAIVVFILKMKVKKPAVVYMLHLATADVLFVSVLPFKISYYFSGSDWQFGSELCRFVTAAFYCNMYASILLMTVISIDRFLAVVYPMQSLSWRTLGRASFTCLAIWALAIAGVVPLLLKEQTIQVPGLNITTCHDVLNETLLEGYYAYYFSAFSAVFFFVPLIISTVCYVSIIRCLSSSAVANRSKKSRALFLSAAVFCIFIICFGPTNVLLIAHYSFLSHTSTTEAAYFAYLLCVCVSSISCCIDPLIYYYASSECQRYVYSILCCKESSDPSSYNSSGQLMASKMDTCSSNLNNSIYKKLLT
Test: Evaluation of PAR-1 antagonistic action by intracellular calcium concentration variation assay (FLIPR)
Assay type: cell-based
Settings: human PAR-1-expressing CHO cells, agonist peptide SFLLRN-NH2 final concentration 0.3 nM, Fluo-3AM
Kindly supply the reported pIC50 values for the records listed here.
Lab note: report pIC50 as minus log10 of the concentration in molar units, number only.

Consider the compound CCNC(=O)c1ccc(-n2nnc(C(=O)NC3CC3)c2COc2ccc(F)cc2)cc1 [Example 123] and give its measured pIC50.
6.01

// repeat for CCCc1c(C(=O)NC2CC2)nnn1-c1ccc(NC(=O)C2CC2)cc1 [Example 4] and report
6.26

// repeat for C=CCCc1c(C(=O)NC2CC2)nnn1-c1ccc(NC(=O)NCC)cc1 [Example 41] and report
6.20

// repeat for CCNC(=O)c1ccc(-n2nnc(C(=O)NC3CC3)c2CCC(C)C)cc1 [Example 97] and report
5.80

// repeat for CCCc1c(C(=O)NC2CC2)nnn1-c1ccc(NC(=O)NC)cc1 [Example 31] and report
5.43

// repeat for CCNC(=O)c1ccc(-n2nnc(C(=O)NC3CC3)c2CCCCF)cc1 [Example 108] and report
6.21

// repeat for CCCc1c(C(=O)NCc2ccc3c(c2)OCO3)nnn1-c1ccc(C(=O)NCC)cc1 [Example 86] and report
6.21

// repeat for CCNC(=O)c1ccc(-n2nnc(C(=O)NC3CC3)c2CCCCCF)cc1 [Example 111] and report
5.80

// repeat for CCNC(=O)c1ccc(-n2nnc(C(=O)NC3CC3)c2CC2CC2)cc1 [Example 96] and report
5.92
